Test system: CCRF-CEM
Assay: Growth inhibition of human CEM cells after 72 hrs by MTT assay
Type: functional, cell-based
pIC50: −log10 of the molar value.
Each entry below lists one item and its recorded pIC50 value.

- Compound: "CC(O)(CF)Cc1cc(O)nc(O)n1 (configuration not stated)"
  Reported Measurement: "< 3.70"
- Compound: "COc1nc(CC(C)(O)C(F)(F)F)c(-c2ccccc2)c(OC)n1 (configuration not stated)"
  Reported Measurement: 4.15
- Compound: "COc1cc(CC(C)(O)C(F)(F)F)nc(OC)n1 (configuration not stated)"
  Reported Measurement: "< 3.70"
- Compound: "COc1cc(/C=C(\\C)c2ccc(F)cc2)nc(OC)n1"
  Reported Measurement: 4.13
- Compound: "COc1nc(C)c(Br)c(OC)n1"
  Reported Measurement: "< 3.70"

Ask: Reported pIC50 for COc1cc(CC(O)(c2ccc(F)cc2)c2ccc(F)cc2)nc(OC)n1 : what is it?
Result: < 3.30

Ask: Then this compound: CC(=O)OC(C)(CF)Cc1cc(O)nc(O)n1 (configuration not stated)
Result: < 3.70
